# test-system: mouse MSR1 on RAW264.7 cells (mouse) (UniProt P30204)
# Sequence (P30204 whole entry): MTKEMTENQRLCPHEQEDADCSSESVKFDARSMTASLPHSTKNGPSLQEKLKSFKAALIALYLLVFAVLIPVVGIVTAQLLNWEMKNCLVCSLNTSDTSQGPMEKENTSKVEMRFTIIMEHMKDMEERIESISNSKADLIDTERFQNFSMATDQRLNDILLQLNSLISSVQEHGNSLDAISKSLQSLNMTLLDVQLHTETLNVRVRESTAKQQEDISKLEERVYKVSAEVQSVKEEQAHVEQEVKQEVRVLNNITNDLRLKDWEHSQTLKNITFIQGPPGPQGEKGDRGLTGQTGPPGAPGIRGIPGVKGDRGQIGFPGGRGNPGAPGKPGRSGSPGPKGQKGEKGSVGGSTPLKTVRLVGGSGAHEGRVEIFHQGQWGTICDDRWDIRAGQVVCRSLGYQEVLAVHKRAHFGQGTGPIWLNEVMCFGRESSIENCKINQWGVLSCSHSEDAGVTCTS
# test-method-notes: flow cytometry, RAW264.7 cells, 10 ug/mL
quantity-name: MFI

* H1H27754P-N297Q (antibody, human IgG1, V domains shown) VH: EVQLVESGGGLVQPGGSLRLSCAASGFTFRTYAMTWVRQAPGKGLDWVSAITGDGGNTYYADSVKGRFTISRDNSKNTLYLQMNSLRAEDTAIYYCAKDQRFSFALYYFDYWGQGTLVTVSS VL: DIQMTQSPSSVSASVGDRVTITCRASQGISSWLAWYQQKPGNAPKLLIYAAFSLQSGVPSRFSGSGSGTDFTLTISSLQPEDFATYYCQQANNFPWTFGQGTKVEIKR | 5410
* H1H21234N-N297Q (antibody, human IgG1, V domains shown) VH: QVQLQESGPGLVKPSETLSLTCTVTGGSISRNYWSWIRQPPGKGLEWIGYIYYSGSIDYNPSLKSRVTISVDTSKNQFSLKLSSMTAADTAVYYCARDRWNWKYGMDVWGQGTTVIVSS VL: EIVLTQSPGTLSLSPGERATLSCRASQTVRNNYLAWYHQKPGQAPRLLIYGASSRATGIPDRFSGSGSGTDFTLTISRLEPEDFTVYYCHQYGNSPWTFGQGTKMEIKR | 7050
* H1H27734P-N297Q (antibody, human IgG1, V domains shown) VH: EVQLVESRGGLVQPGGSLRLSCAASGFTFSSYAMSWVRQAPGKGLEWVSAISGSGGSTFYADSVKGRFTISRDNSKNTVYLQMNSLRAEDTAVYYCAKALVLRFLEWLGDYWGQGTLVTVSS VL: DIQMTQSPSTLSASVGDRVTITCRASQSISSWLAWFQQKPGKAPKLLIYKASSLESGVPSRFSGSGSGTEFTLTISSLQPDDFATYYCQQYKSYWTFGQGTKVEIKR | 4780
